// cross-study collection: Ki for Histamine H3 receptor (Homo sapiens, UniProt Q9Y5N1)
parameter: Ki (nM)

- compound: "C[C@@H]1CCCN1CCCOc1ccc(C(=O)CN2CCC(C(F)(F)F)CC2)cc1"
  endpoint-result: 2.5
- compound: "Cn1nc(-c2ccc(C(=O)N3CCC[C@H]3CN3CCCC3)cc2)ccc1=O"
  endpoint-result: 10
- compound: "Cn1cccc1C(=O)NCCc1ccc(OCCN2CCOCC2)c(Br)c1"
  endpoint-result: 17600
- compound: "CCCCC(c1ccc(-c2ccc(C)cc2)cc1)N1CCCCC1 (racemic)"
  endpoint-result: 13500
- compound: "CNCCN(c1ccccc1)c1ccc(OCCN2CCCC2)cc1"
  endpoint-result: 1.6
- compound: "CN(C)CCCOc1c(Br)cc(CN(C)C)cc1Br"
  endpoint-result: 36
- compound: "CN(C)CCCSc1ncc(C(O)c2ccc(Cl)cc2)n1C (stereo not drawn)"
  endpoint-result: 18
- compound: "c1ccc(COCCCc2c[nH]cn2)cc1"
  endpoint-result: 2.7
